Below, each entry is listed with its recorded TGI.
# Tested on: EKVX NSCLC
# experimentSummary: NCI tumour cell line growth inhibition, 48 h

Measured TGI, "O=c1[nH]cnc2c1ncn2[C@@H]1C[C@H]1CO" : > 100 µM

For reference, reported TGI for "Br/C(=N\Nc1nn[nH]n1)c1ccncc1" stands at > 100 µM

Reported TGI ( "CC(=O)c1cccc(NC(=O)C(=O)Nn2c(N)nnc2N)c1" ) = > 100 µM

---

# System: HOP-92 NSCLC
# experimentSummary: NCI tumour cell line growth inhibition, 48 h
Cut-off 30 µM on TGI, inclusive. At or above means Criterion met; below means Criterion not met.

1. O=S(=O)(c1ccccc1)C1(CCC2OCCO2)C=CC2(CC1)OCCO2 (configuration not stated); Criterion met
2. COc1ccccc1/C=C1\CCC(CCN2CCOCC2)C1=O (configuration not stated); Criterion met
3. CCOC(=O)c1ccc(Nc2nc3ccccc3nc2C(=O)OCC)cc1; Criterion met
4. c1ccc2c(c1)[nH]c1c2nc2ncccn21; Criterion met
5. O=C(NCc1ccncc1)C12CC3CC(C1)CC(c1ccc(Cl)cc1)(C3)C2; Criterion not met

[ask] Threshold query (TGI >= 30 µM) on "Nc1nc(Nc2ccccc2)sc1C(=O)c1cccs1"
[reply] Criterion met

[ask] Please indicate if the recorded TGI for O=C1OC2CC=CC1C2 (configuration not stated) meets or exceeds 30 µM.
[reply] Criterion met

[ask] Record NCCC(=O)N[C@@H](Cc1cc(O)c(O)c(SCC(NC(=O)CC[C@H](N)C(=O)O)C(=O)NCC(=O)O)c1)C(=O)O (some centres not stated) ; criterion: TGI no lower than 30 µM. Met?
[reply] Criterion met

[ask] Form field: TGI at least 30 µM? Entry: Cc1ccc(C)c2c1CC(Cc1ccccc1C(=O)O)C2=O (configuration not stated)
[reply] Criterion met

[ask] Has "Cl/C(=C\C=Nc1ccc(I)cc1)c1ccc2ccccc2c1" a recorded TGI greater than or equal to 30 µM?
[reply] Criterion met

[ask] Could you tell me if the measured TGI of "CC(C)(C)c1ccc(/C=N/NC(=O)CSCC(=O)N/N=C/c2ccc(C(C)(C)C)cc2)cc1" reaches 30 µM or more?
[reply] Criterion met

[ask] Does TGI meet or surpass 30 µM for "C[C@]12CC[C@H](O)CC1=CC[C@@H]1[C@@H]2CC[C@]2(C)C(=N/O)/C(=C/c3ccc([N+](=O)[O-])cc3)C[C@@H]12" ?
[reply] Criterion not met

[ask] # check: TGI of "O=C1C(=Cc2cccc(O)c2)N=C(c2ccccc2)N1n1c(-c2ccccc2)nc2ccccc2c1=O" is greater than or equal to 30 µM
[reply] Criterion met

[ask] For this molecule, is measured TGI 30 µM or higher? "Cn1c2c3ccc(Cl)cc3nc-2c(Cl)c2ccccc21"
[reply] Criterion met

[ask] Identify whether the reported TGI of the following molecule is 30 µM or greater: "CNc1nnc(CNc2ccc(-c3nnc(NC)n3N)cc2)n1N"
[reply] Criterion met

[ask] Check the entry "COc1ccc(CNc2nc3cc(N)cc(N)c3nc2-c2ccccc2)cc1" : does TGI equal or exceed 30 µM?
[reply] Criterion met

[ask] Identify whether the reported TGI of the following molecule is 30 µM or greater: CCCCCCCC(=O)OCC1OC(OC)C(NC(=O)N(CCCl)N=O)C(O)C1O (configuration not stated)
[reply] Criterion not met

[ask] Could you tell me if the measured TGI of "CCCC(=O)O.CCCC(=O)O.CCCC(=O)O.CCCC(=O)O.[Rh].[Rh]" reaches 30 µM or more?
[reply] Criterion not met

[ask] Quick check: does "O=C(/C(=C/c1ccc([N+](=O)[O-])cc1)SCc1ccc(F)cc1)c1ccc(Cl)cc1" have TGI greater than or equal to 30 µM?
[reply] Criterion met

[ask] Given the entry "COc1cccc(Cc2cc(=O)c3ccc(C)nc3[nH]2)c1" , answer whether its TGI meets or surpasses 30 µM.
[reply] Criterion met

[ask] Dear colleague, could you confirm whether "COc1cnc2c(c1)C(=O)c1c-2n(CCCNC(C)C)c(=O)c2cc(F)ccc12" has TGI at or above 30 µM?
[reply] Criterion not met

[ask] Assess whether reported TGI for CCOP(=O)(OCC)C(C(=O)OC)C(=O)C(=O)Nc1c(C)cc(Br)cc1C (configuration not stated) sits at 30 µM or higher.
[reply] Criterion met

---

# System: NCI/ADR-RES ovarian
# experimentSummary: NCI tumour cell line growth inhibition, 48 h
This section presents molecules with their documented GI50 values.

1) CCOC(=O)/C(=C(/C)NCC(C)C)c1cc(O)c(O)c2c(C)cc(=O)[nH]c12; 2.42 µM
2) O=C(NCc1ccncc1)C12CC3CC(C1)CC(c1ccc(Cl)cc1)(C3)C2; 17.2 µM
3) CCCCCCCCCCCCOC1C(C(CC(=O)N2CCN(c3cccc(C(F)(F)F)c3)CC2)NS(=O)(=O)c2cc(Cl)cc(Cl)c2)OC2OC(C)(C)OC21 (centres undefined); > 100 µM

Attention now turns to another entry.
GI50 reported for this molecule "N#CC1=C(N)NC(=S)NC12Nc1ccccc1N2" : 46.8 µM

---

# Tested on: NCI-H23 lung
# experimentSummary: NCI tumour cell line growth inhibition, 48 h; in the data active means GI50 below about 0.43 µM; inactive means the rest
Form entry, call: pick from 1.0 = active, 0.0 = inactive

1) COc1ccc(-c2nc(N3CCN(C(=O)C4CCCCC4)CC3)c3c4c(sc3n2)CCCC4)cc1; 0.0
2) Cc1cn2c(/C=N/N=C(N)N)c(-c3cccnc3)nc2s1; 0.0

[ask] For "COc1ccc(-c2c(-c3cc(OC)c(OC)c(OC)c3)noc2N)cc1" , which call appears in the assay record?
[reply] 1.0

[ask] Would you mind telling me which call this test gave "C=C(CN1CCN(c2cccc(C(F)(F)F)n2)CC1)c1ccc(C(=S)Nc2ccccc2N)cc1" ?
[reply] 0.0

[ask] Hi team, can someone confirm the assay call for "Nc1c(C(=O)c2ccc(CCCN3CCOCC3)cc2)cnn1-c1ccc(F)cc1" ?
[reply] 0.0

[ask] Test call for this molecule, please: "C/C(=C(\c1ccc(OCCN2CCCCCC2)cc1)c1ccc(OC(=O)Cc2ccccc2)cc1)c1ccc(Cl)cc1"
[reply] 0.0

---

# System: NCI-H522 lung
# experimentSummary: NCI tumour cell line growth inhibition, 48 h
attributeMeasured: TGI

1. COC(=O)[C@H](Cc1ccc(O)cc1)NC(=O)[C@@H](OC)[C@@H]1Cc2cc3cc(OC4CC(OC5CC(O)C(O)C(C)O5)C(O)C(C)O4)c(C)c(O)c3c(O)c2C(=O)[C@H]1OC1CC(OC2CC(OC3CC(C)(O)C(O)C(C)O3)C(O)C(C)O2)C(O)C(C)O1 (some centres not stated); > 25 µM
2. CC(C)(C)OC(=O)NC1CCC(C(C)(C)C)CC1 (configuration not stated); > 100 µM
3. C=CCSSCC=C; > 100 µM
4. O=[N+]([O-])c1c(C=Nc2ccccc2)oc(-c2ccc3c(c2)OCO3)c1-c1ccc2c(c1)OCO2; > 100 µM
5. COc1cc(/C=C2\C(=O)N(C(=O)c3ccc(NC(C)=O)cc3)N=C2C)ccc1O; > 100 µM
6. O=c1[nH]cnc2c1ncn2[C@@H]1C[C@H]1CO; > 100 µM
7. c1ccc(C[N+]23CN4CN(CN(C4)C2)C3)cc1; > 100 µM
8. COC(=O)c1ccc(Cl)cc1NC(=O)C1CCCCC1; > 100 µM

Assay NCI-H522 lung, sample "Cc1cc(C)nc(SCCc2cccc[n+]2C)n1" , TGI read: > 100 µM

Summary line: CC(C)N1CN(C(C(=O)N[C@@H]2C(=O)N3C2SC(C)(C)C3C(=O)O)c2ccc(O)cc2)CSC1=S (some centres not stated) , NCI-H522 lung, reported TGI = > 100 µM

Recorded TGI for SC1CCCN(Cc2ccccc2)C1 (configuration not stated) on NCI-H522 lung was > 100 µM

# lookup: "C1=NCCNCCNCCN=Cc2ccccc2OCc2cccc(n2)COc2ccccc21" on NCI-H522 lung, TGI = > 100 µM

---

# Tested on: HCT-116 colon
# experimentSummary: NCI tumour cell line growth inhibition, 48 h
attributeMeasured: TGI

Below: 5 molecules and their reported TGI.
1) CC(=O)O[C@H]1C(=O)[C@@]2(C)[C@H]([C@H](OC(=O)c3ccccc3)[C@]3(O)C[C@H](OC(=O)[C@H](O)[C@@H](NC(=O)C(C)(C)C)c4ccccc4)C(C)=C1C3(C)C)[C@]1(OC(C)=O)CO[C@@H]1C[C@@H]2O; > 3.23 µM
2) C=CCNS(=O)(=O)c1ncnc2nc[nH]c12; > 100 µM
3) CCOC(=O)C(C)(C)C(O)C(C)C (configuration not stated); > 100 µM
4) O=c1[nH]cnc2c1ncn2[C@@H]1C[C@H]1CO; > 100 µM
5) COc1cc(-c2nn(-c3cccc(NC(=O)c4ccc(N5CCOCC5)c(C(F)(F)F)c4)c3)cc2-c2ccncc2)ccc1Cl; > 32.9 µM

Item CC(=O)OCC(OC(C)=O)C(OC(C)=O)C(OC(C)=O)C(C=NN(C(C)=O)S(=O)(=O)c1ccc(/C=C2\NC(=O)NC2=O)cc1)OC(C)=O (configuration not stated) was tested on HCT-116 colon; the reported TGI is > 100 µM

Item: "COc1cccc2c1c(C1=C(c3cn(C)c4ccccc34)C(=O)NC1=O)cn2C" | System: HCT-116 colon | TGI: > 25 µM
